B1: TPR t1 (parent)
chain: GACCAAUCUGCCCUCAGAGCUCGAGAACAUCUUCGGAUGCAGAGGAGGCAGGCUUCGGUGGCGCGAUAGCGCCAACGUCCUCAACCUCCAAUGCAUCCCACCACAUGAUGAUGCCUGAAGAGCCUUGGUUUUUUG

variants of: B1; assay: polymerase ribozyme fitness, log enrichment relative to wild type (log ratio); higher = more active; in vitro selection for triplet polymerase activity
Please enter label 1 where polymerase ribozyme fitness (log ratio) is greater than or equal to -3, and label 0 where it is lower.

These recorded examples may help you get a feel for the data.
GACCAAUCUGCCCGCAGAGCUCGAGAACAUCUUCGGAUGGAGAGGAGGCAGGCUUCGGUGGCGCGAUAGCGCCAACGUCCUCAACUUCCGAUGCAUCCCACCACAAGAUGAUGCCUGAAGAGCCUUGGUUUUUUG [U14G C40G C86U A90G U106A]	label 0
GACCAAUCUGCCCUCAGAGCUCGAGAACAUCUUCGGAUGCAGAGGAGGCAGGCUUCGGUGGCGCGAUAGCGCCAACGUCCUCAACCUCCAAUGCAUCCCACUACAUGAUGUUGCCUGAAGAGCCUUGGCUUUUUG [C102U A111U U129C]	label 0
GACCAAUCUGCCCUCAGAGCUCGAGAACAUCUUCGGAUCCAGAGAAGGCAGGCUUCGGUGGCGCGAUAGCGCCAACGUCCUCAACCUCCAAUGCAUCCCACCACAUGAUGAUGCCUGAAGAGCCUUGGUUUUUUG [G39C G45A]	label 1
GACCAAUCUGCCCUCAGAGCUCGAGAACAUCUUCGGAUGCAGAGGAGGCAGGCUUCGGUGGCGCGAUAGCGCCAACGUCCUCAACCACCAAUGCAUCCCACCACAUGAUGAUGACUGAAGAGCCUUGGUUUUUUG [U87A C114A]	label 1
GACCAAUCUGCCCUCAGAGCUCGAGAACAUCUUCGGAUGCAGAGGAGGCAGGCUUCGGUGGCGCGUUAGCGCCAACGUCCUCAACCUCCAAUGCAUCCCACCACAUGAUGAUGCCUGAAGAGCCUUGAUUUUUUG [A66U G128A]	label 0
GAUCAAUCUGCCCUCAGAGCUCGAGAACAUCUUCGGAUUCAGAGGAGGCAGGCUUCGGUGGCGCGAUAGCGCAAACGUCCUCAACCUCCAAUGCAUCUCACCACAUGAUGAUGCCUGAAGAGCCUUGGUUUUUUG [C3U G39U C73A C98U]	label 1

QUERY: Does polymerase ribozyme fitness (log ratio) meet or surpass -3 for GACCAAUCUGCCCUAAGAGCUCGAGAACAUCUUCGGAUGCUGAGGAGGCAGGCUUCGGUGGCGCGAUAGCGCCAACGUCCUCAACCUCCAAUGCAUCCCACCACAUGAUGAUGCCUGAAGAGCCUUGGUUUUUUG [C15A A41U] ?
RESULT: label 0

QUERY: Does polymerase ribozyme fitness (log ratio) meet or surpass -3 for GACCAAUCUGCCCUCAGAUCUCGAGAACAUCUUCGGAUGCAGAGGAGGCAGGCUUCGGUGGCGCGAUAACGCCAACGUCCUCAACCUCCAAUGCAUCCCACCACAUGAUGAUGCCUGAAGAGCCUUGGUUUUUUG [G19U G69A] ?
RESULT: label 0

QUERY: Does polymerase ribozyme fitness (log ratio) meet or surpass -3 for GACCAAUCUGCCCUCAGAGCUCGAGAACAUCUUCGGAUGCAGAGCAGUCAGUCUUCGGUGGCGCGAUAGCGCCAAUGUCCUCAACCUCCAAUGCAUCCCACCACAUGAUGAUGCCUGAAGAGCCUUGGUUUUUUG [G45C G48U G52U C76U] ?
RESULT: label 0

QUERY: Does polymerase ribozyme fitness (log ratio) meet or surpass -3 for GACCAAUCUGCCCUCAGAGCUCGAGAACAUCUUCGGAUGCAGAGGAGCCAGGCUUCGGUGGCGCGAUAGCACCAACGUCCUCAACCUCCAAUGCAUCCCACCACAUGGUGACGCCUUAAGAGCCUUGGUUUUUUG [G48C G71A A108G U112C G117U] ?
RESULT: label 0

QUERY: Does polymerase ribozyme fitness (log ratio) meet or surpass -3 for GACCAAUCUGCCCUCAGAACUCGAGAACAUCUUCGGAUGUAGAGGAGGCAGGAUUCGCUGGCGCGAUAGCGCCAACGUCCUCAACCUCCAAUUCAUCCCACCACAUGAUGAUGCCUGAAGAGCCUUGGUUUUUUG [G19A C40U C53A G58C G93U] ?
RESULT: label 0
